# Tested on: MCF7 breast
# run.description: NCI tumour cell line growth inhibition, 48 h; in the data active means GI50 below about 0.43 µM; inactive means the rest
Possible outcomes: T (active), F (inactive)

- molecule: "Cc1cccc(Oc2ccc(Nc3ncnc4ccc(NC(=O)CN(C)C)cc34)cc2Cl)c1"
  category: "F"
- molecule: "O=C(O)CSc1cc(NS(=O)(=O)c2ccc(Br)cc2)c2ccccc2c1O"
  category: "F"
- molecule: "CC1=C(C(=O)Nc2ccc3[nH]ncc3c2)C(c2ccc(F)cc2)N=C(c2ccc(C(F)(F)F)nc2)N1 (stereo unspecified)"
  category: "F"
- molecule: "CC(=O)O[C@H]([C@H](OC(C)=O)[C@H](C)OC(C)=O)[C@@H](/C=C/[C@H]1CC=CC(=O)O1)OC(C)=O"
  category: "F"
- molecule: "CN(C)CCCC1(c2ccc(F)cc2)OCc2cc(-c3csc4ccccc34)ccc21 (stereo unspecified)"
  category: "F"
- molecule: "FC(F)(F)c1cccc(CNC2CCN(CCc3ccccc3)CC2)c1"
  category: "F"
- molecule: "O=C1NC(=O)C2C3C=CC(C12)C1C2C(=O)NC(=O)C2C31 (stereo unspecified)"
  category: "F"
- molecule: "O=C1NC(=NCc2cccs2)O/C1=C\\c1ccc2ncccc2c1"
  category: "F"
- molecule: "Cc1ccc(-c2nc([P+](c3ccccc3)(c3ccccc3)c3ccccc3)c(N3CCOCC3)o2)cc1"
  category: "T"
- molecule: "O=C(NO)c1ccc(CNc2cccc3nc(C4CC4)n(-c4ccccc4)c(=O)c23)cc1"
  category: "F"
- molecule: "Nc1cc(C(F)(F)F)c(-c2nc(N3CCOCC3)nc(N3CCOCC3)n2)cn1"
  category: "T"

All values here come from PubChem BioAssay (NCI).
